Assay: in vitro
Details: human, hela cells, % viability
# viability at 28.5 h, 10 µM values compiled below

compound: CCN1CCN(c2cc(C)nc3c(-c4ccccc4)cnn23)CC1 [CBK287793]
result-units: %
viability at 28.5 h, 10 µM: 88.4
//
compound: CS(=O)(=O)Nc1cc2ccccc2c(-c2ccncc2)n1 [CBK085746]
result-units: %
viability at 28.5 h, 10 µM: 92
//
compound: CC(=O)c1cccc(NS(=O)(=O)c2ccc(OC(F)(F)F)cc2)c1 [CBK043606]
result-units: %
viability at 28.5 h, 10 µM: 88.5

----------
# viability at 28.5 h, 10 µM values compiled below
Assay: in vitro
Settings: human, hela cells, % viability
result-type: viability at 28.5 h, 10 µM (%)

compound: O=C(Nc1ccc(F)c(Cl)c1)c1cccnc1Sc1cccs1 [CBK057512]
result-units: %
experimental-value: 89
//
compound: Cc1cc(I)ccc1NCC(=O)NN [CBK261738]
result-units: %
experimental-value: 91.1
//
compound: CN(C(=O)CCc1nc2sc3c(c2c(=O)[nH]1)CCCC3)C1CCCCC1 [CBK306075]
result-units: %
experimental-value: 88.2

----------
Assay: in vitro
Details: human, hela cells, % viability
# viability at 28.5 h, 10 µM values compiled below

compound: CC(C)N1CNc2c(c(=O)nc(O)n2Cc2ccccc2)C1
viability at 28.5 h, 10 µM [%]: 92.5
--
compound: CN(C)CC1CN(C(=O)c2ccccc2F)Cc2ccccc2O1 (stereo not drawn)
viability at 28.5 h, 10 µM [%]: 86.9
--
compound: CCOc1ccc(-c2ccnc(NCCNC(C)=O)n2)cc1C(=O)O
viability at 28.5 h, 10 µM [%]: 85.1
--
compound: CC(C)(C)CCNCCN1CCOCC1
viability at 28.5 h, 10 µM [%]: 92.2
--
compound: c1cc(-c2nnn[nH]2)ccc1OCc1nnn[nH]1
viability at 28.5 h, 10 µM [%]: 93.1
--
compound: CCN(CC)C(=O)c1cccc(NS(=O)(=O)c2cccc3cccnc23)c1
viability at 28.5 h, 10 µM [%]: 66.5
--
compound: COc1ccc(C(=O)NCCCSc2nc(C(C)(C)C)cc(C(F)(F)F)n2)cc1
viability at 28.5 h, 10 µM [%]: 99.7
--
compound: Nc1nccnc1C(=O)Oc1ccccc1
viability at 28.5 h, 10 µM [%]: 88.1
--
compound: OCCOc1ccc(Cl)c2cccnc12
viability at 28.5 h, 10 µM [%]: 78.1

----------
Assay: in vitro
Conditions: human, hela cells, % viability
# viability at 28.5 h, 10 µM values compiled below
result-type: viability at 28.5 h, 10 µM

compound: Nc1ccc2ccc(-c3ccsc3)nc2n1
experimental-value: 89.4%
--
compound: O=C(CCc1ccccc1)NNC(=O)C1CC1c1ccccc1 (stereo not drawn)
experimental-value: 114%
--
compound: CSCCC(C(=O)O)N1C(=O)c2ccccc2C1=O (stereo not drawn)
experimental-value: 102%

----------
Assay: in vitro
Details: human, hela cells, % viability
# viability at 28.5 h, 10 µM values compiled below
result-type: viability at 28.5 h, 10 µM (%)

molecule: CC(=O)N(Cc1ccccc1)C1CCCc2c1[nH]c1ccc(C)cc21 (stereo not shown) [CBK261810]
experimental-value: 98

molecule: Cc1ccc(/C=C/C(=O)O)cc1S(=O)(=O)N1CCCc2ccccc21 [CBK264425]
experimental-value: 101

molecule: O=C(O)CCc1ccc(-c2ccc(F)cc2)n1CC1CCCO1 (stereo not shown) [CBK268988]
experimental-value: 86.5

molecule: C=CCNC(=O)C1CCCN(c2nc3ccccc3n2C)C1 (stereo not shown) [CBK282872]
experimental-value: 105

molecule: CCc1c(C)nc2n(c1=O)C(CS(=O)(=O)c1ccccc1)CS2 (stereo not shown) [CBK268949]
experimental-value: 94.7

molecule: N#C/C(=C/c1ccc(-c2cc(C(=O)O)cc(C(=O)O)c2)o1)c1nc2ccccc2s1 [CBK266754]
experimental-value: 103

molecule: Cn1c(NC(=O)CSc2nnc(Cc3cccc4ccccc34)o2)cc(=O)n(C)c1=O [CBK266055]
experimental-value: 115
